All values here come from patent EP1500391A1.

Target: human 5-HT2A receptor (Homo sapiens, UniProt P28223)
Construct: expressed in transfected cells; host or cells: HEK-293 cells
Sequence (P28223 whole entry): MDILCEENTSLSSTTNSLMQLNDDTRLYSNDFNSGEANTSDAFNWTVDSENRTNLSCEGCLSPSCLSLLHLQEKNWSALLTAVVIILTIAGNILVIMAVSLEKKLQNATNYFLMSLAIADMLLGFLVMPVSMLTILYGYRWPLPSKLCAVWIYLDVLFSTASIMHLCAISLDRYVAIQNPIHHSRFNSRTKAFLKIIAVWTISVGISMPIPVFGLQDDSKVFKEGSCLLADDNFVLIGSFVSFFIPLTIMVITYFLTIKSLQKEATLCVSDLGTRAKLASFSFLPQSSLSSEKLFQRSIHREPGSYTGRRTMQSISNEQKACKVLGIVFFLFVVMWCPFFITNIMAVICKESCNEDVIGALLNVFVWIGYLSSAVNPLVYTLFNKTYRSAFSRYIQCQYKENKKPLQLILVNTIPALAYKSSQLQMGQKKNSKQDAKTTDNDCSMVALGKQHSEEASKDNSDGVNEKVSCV
Assay: 5HT2a radioligand binding assay ([3H]ketanserin)
Conditions: inhibition of control specific binding; at 1µM (concentration printed only in head of Cpd A); human recombinant
reportedEndpoint: inhibition at 1 µM (%)
Value expressed in %; do not type the unit.

Examples with answers:
smilesstr=CN(C)CCO[C@]1(c2ccccc2)C[C@H]2CC[C@]1(C)C2(C)C unitlabel=% experimentalvalue=99
smilesstr=CNCCO[C@@]1(c2ccccc2)C[C@@H]2CC[C@@]1(C)C2(C)C unitlabel=% experimentalvalue=89

I have this compound here, "CN(C)CCO[C@@]1(c2ccccc2)C[C@@H]2CC[C@@]1(C)C2(C)C" , and I need its recorded inhibition at 1 µM.
93

I have this compound here, "CNCCO[C@]1(c2ccccc2)C[C@H]2CC[C@]1(C)C2(C)C" , and I need its recorded inhibition at 1 µM.
98

* * *

In this section we review reported inhibition at 1 µM values for a set of molecules.
Target: human 5-HT6 receptor (Homo sapiens, UniProt P50406)
Sequence (P50406 whole entry): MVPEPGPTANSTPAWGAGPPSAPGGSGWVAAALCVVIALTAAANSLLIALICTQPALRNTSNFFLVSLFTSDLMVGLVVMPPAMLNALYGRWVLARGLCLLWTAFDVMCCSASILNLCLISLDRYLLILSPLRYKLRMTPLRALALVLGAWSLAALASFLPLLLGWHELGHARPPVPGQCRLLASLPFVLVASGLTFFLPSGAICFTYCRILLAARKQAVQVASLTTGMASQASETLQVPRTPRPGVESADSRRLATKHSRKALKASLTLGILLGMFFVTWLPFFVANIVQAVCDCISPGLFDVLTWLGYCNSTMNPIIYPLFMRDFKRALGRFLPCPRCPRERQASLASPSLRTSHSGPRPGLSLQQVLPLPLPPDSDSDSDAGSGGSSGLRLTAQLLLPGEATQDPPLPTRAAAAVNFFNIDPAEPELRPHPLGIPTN
Test: 5HT6 radioligand binding assay ([3H] LSD)
Conditions: read-out: %inhibition 5HT6
Value expressed in %; do not type the unit.

Examples with answers:
smilesstr=CN(C)CCO[C@@]1(c2ccccc2)C[C@@H]2CC[C@@]1(C)C2(C)C unitlabel=% experimentalvalue=44
smilesstr=CNCCO[C@]1(c2ccccc2)C[C@H]2CC[C@]1(C)C2(C)C unitlabel=% experimentalvalue=89

I have this molecule here, "CN(C)CCO[C@]1(c2ccccc2)C[C@H]2CC[C@]1(C)C2(C)C" , and I need its recorded inhibition at 1 µM.
88

I have this molecule here, "CNCCO[C@@]1(c2ccccc2)C[C@@H]2CC[C@@]1(C)C2(C)C" , and I need its recorded inhibition at 1 µM.
36

* * *

Molecular target: human 5-HT2C receptor (Homo sapiens, UniProt P28335)
Construct: expressed in transfected cells; host or cells: CHO cells
Sequence (P28335 33-458): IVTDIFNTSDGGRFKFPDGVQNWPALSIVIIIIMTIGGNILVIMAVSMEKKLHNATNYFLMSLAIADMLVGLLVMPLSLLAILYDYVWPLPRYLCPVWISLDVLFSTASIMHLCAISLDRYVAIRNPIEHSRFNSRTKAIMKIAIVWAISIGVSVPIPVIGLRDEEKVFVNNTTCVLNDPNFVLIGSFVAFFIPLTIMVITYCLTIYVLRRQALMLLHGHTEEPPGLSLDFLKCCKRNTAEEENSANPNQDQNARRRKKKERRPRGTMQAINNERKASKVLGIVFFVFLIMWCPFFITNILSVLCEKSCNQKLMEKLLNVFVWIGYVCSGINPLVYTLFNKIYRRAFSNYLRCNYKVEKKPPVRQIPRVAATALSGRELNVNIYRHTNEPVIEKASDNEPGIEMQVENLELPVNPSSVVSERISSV
Assay: 5HT2c radioligand binding assay ([3H]mesulergine)
Conditions: inhibition of control specific binding; at 1µM (concentration printed only in head of Cpd A); transfected CHO cells
reportedEndpoint: inhibition at 1 µM (%)
Value expressed in %; do not type the unit.

Examples with answers:
smilesstr=CNCCO[C@@]1(c2ccccc2)C[C@@H]2CC[C@@]1(C)C2(C)C experimentalvalue=65
smilesstr=CNCCO[C@]1(c2ccccc2)C[C@H]2CC[C@]1(C)C2(C)C experimentalvalue=97
smilesstr=CN(C)CCO[C@]1(c2ccccc2)C[C@H]2CC[C@]1(C)C2(C)C experimentalvalue=99

Kindly review the next molecule as well.
I have this molecule here, "CN(C)CCO[C@@]1(c2ccccc2)C[C@@H]2CC[C@@]1(C)C2(C)C" , and I need its recorded inhibition at 1 µM.
79
